# Lookup of reported inhibition at 10 μM keyed by entry
# experimental-target: CYP1A1 (Homo sapiens)
# Construct: host or cells: yeast microsomes (Saccharosomes)
# Sequence (P04798 whole entry): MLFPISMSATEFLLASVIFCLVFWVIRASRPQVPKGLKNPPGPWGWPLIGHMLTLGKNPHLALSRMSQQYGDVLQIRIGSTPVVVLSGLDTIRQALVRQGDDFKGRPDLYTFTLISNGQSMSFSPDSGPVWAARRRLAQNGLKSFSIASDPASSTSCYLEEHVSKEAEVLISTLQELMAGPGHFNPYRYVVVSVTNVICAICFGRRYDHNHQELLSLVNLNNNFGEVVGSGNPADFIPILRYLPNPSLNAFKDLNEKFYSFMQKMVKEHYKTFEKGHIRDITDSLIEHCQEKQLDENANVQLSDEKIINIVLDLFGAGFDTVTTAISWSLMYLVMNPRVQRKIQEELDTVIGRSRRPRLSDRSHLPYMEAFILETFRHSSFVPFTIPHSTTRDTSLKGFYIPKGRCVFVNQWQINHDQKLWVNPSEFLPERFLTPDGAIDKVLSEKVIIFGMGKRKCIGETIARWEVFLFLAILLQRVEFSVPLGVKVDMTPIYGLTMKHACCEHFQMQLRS
# assay-remarks: CYP1A1 inhibition in HEK293 cells transfected with pcDNA3.1/CYP1A1 (live cells)
# Type: cell-based
# run-conditions: human, HEK293 cells transfected with pcDNA3.1/CYP1A1 (live cells), probe EROD (5 μM), % inhibition of CYP1A1 in HEK293 cells at 10 μM, 10 μM, 5 μM EROD

Below: 2 compounds and their reported inhibition at 10 μM.
compound: COc1c(C(=O)/C=C/c2ccc(Cl)cc2)c(O)c(OC)c2occc12 [Compound 4]
attribute-measured: inhibition at 10 μM
data-value: > 80%
//
compound: COc1cc(OC)c(OC)cc1/C=C/C(=O)c1c(O)c(OC)c2occc2c1OC [Compound 18]
attribute-measured: inhibition at 10 μM
data-value: > 80%

[Q] For the compound COc1c(C(C)=O)c(O)c(OC)c2occc12 [Compound 2] , what inhibition at 10 μM is on record?
[A] > 80%
